Below is a list of entries, each paired with its recorded Kd value.
System Tested: T1, Fyn SH2 domain (142-248) (human, UniProt P06241 142-248, biotin (on the AviTag))
T1 construct: SH2 domain of human Fyn kinase, residues 142-248; source: E. coli C43(DE3) with BirA helper plasmid, purified (HisTrap, anion exchange, Ulp1 cleavage, SEC); not shown: His6-SUMO, N-terminal, cleaved; AviTag, C-terminal, kept
T1 sequence (P06241 142-248): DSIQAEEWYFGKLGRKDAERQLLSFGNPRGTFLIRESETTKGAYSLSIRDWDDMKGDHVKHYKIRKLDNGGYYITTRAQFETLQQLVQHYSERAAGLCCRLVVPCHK
Assay Comment: fluorescence polarisation; competition mode; unlabelled phosphopeptide against 0.4 nM FITC-Ahx-GDG-pY-EEISPLLL-NH2 and 4.125 nM Fyn SH2, as printed (Tables S3 and S5)
Protocol Conditions: both partners purified
Non-standard residues stand in square brackets, D forms with d. pY = N[C@@H](Cc1ccc(OP(=O)(O)O)cc1)C(=O)O
Observation Type: Kd (nM)

1. Ac-QVEGIS[pY]DFIPTG-NH2 (SMILES CC[C@H](C)[C@H](NC(=O)CNC(=O)[C@H](CCC(=O)O)NC(=O)[C@@H](NC(=O)[C@H](CCC(N)=O)NC(C)=O)C(C)C)C(=O)N[C@@H](CO)C(=O)N[C@@H](Cc1ccc(OP(=O)(O)O)cc1)C(=O)N[C@@H](CC(=O)O)C(=O)N[C@@H](Cc1ccccc1)C(=O)N[C@H](C(=O)N1CCC[C@H]1C(=O)N[C@H](C(=O)NCC(N)=O)[C@@H](C)O)[C@@H](C)CC, flank added to the 11-residue stretch (surmised: last residue of the library's constant GQSGQ); CBS, human, around pY308, natural variant G307S; flank added to the 11-residue stretch (surmised: first residue of the library's constant GGQSG); source: synthetic peptide (SynPeptide, China)) [CBS pY308 G307S] | 185
2. Ac-QSDQRR[pY]SLIDPG-NH2 (SMILES CC[C@H](C)[C@H](NC(=O)[C@H](CC(C)C)NC(=O)[C@H](CO)NC(=O)[C@H](Cc1ccc(OP(=O)(O)O)cc1)NC(=O)[C@H](CCCNC(=N)N)NC(=O)[C@H](CCCNC(=N)N)NC(=O)[C@H](CCC(N)=O)NC(=O)[C@H](CC(=O)O)NC(=O)[C@H](CO)NC(=O)[C@H](CCC(N)=O)NC(C)=O)C(=O)N[C@@H](CC(=O)O)C(=O)N1CCC[C@H]1C(=O)NCC(N)=O, flank added to the 11-residue stretch (surmised: last residue of the library's constant GQSGQ); CLIP2, human, around pY972, natural variant R977P; flank added to the 11-residue stretch (surmised: first residue of the library's constant GGQSG); source: synthetic peptide (SynPeptide, China)) [CLIP2 pY972 R977P] | 27
3. Ac-QMEKHV[pY]ESVTQG-NH2 (SMILES CSCC[C@H](NC(=O)[C@H](CCC(N)=O)NC(C)=O)C(=O)N[C@@H](CCC(=O)O)C(=O)N[C@@H](CCCCN)C(=O)N[C@@H](Cc1c[nH]cn1)C(=O)N[C@H](C(=O)N[C@@H](Cc1ccc(OP(=O)(O)O)cc1)C(=O)N[C@@H](CCC(=O)O)C(=O)N[C@@H](CO)C(=O)N[C@H](C(=O)N[C@H](C(=O)N[C@@H](CCC(N)=O)C(=O)NCC(N)=O)[C@@H](C)O)C(C)C)C(C)C, source: synthetic peptide (SynPeptide, China)) [Syn-F-2 (synthetic)] | 18.3
4. Ac-QLHVHP[pY]EKVEDG-NH2 (SMILES CC(=O)N[C@@H](CCC(N)=O)C(=O)N[C@@H](CC(C)C)C(=O)N[C@@H](Cc1c[nH]cn1)C(=O)N[C@H](C(=O)N[C@@H](Cc1c[nH]cn1)C(=O)N1CCC[C@H]1C(=O)N[C@@H](Cc1ccc(OP(=O)(O)O)cc1)C(=O)N[C@@H](CCC(=O)O)C(=O)N[C@@H](CCCCN)C(=O)N[C@H](C(=O)N[C@@H](CCC(=O)O)C(=O)N[C@@H](CC(=O)O)C(=O)NCC(N)=O)C(C)C)C(C)C, source: synthetic peptide (SynPeptide, China)) [Syn-F-1 (synthetic)] | 30.2
